Provide the recorded pKd for the entries that follow.
# tested-target: 2-C-methyl-D-erythritol 2,4-cyclodiphosphate synthase (Burkholderia pseudomallei (strain K96243), UniProt Q63T71)
# Sequence (Q63T71 whole entry): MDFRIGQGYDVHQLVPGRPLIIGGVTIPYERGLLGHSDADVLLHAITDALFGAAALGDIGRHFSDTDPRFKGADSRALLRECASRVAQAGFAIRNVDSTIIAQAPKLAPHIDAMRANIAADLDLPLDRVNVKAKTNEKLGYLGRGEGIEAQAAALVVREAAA
# experiment: Binding affinity to Burkolderia pseudomallei IspF by surface plasmon resonance method
Please treat pKd as minus the base-10 logarithm of the molar concentration.

Kindly indicate its recorded pKd. Item: Nc1ccn([C@@H]2O[C@H](CNC(=O)c3ccncc3)[C@@H](O)[C@H]2O)c(=O)n1
3.74

Kindly indicate its recorded pKd. Item: OCc1cn2ccsc2n1
3.87

Kindly indicate its recorded pKd. Item: Nc1ccn([C@@H]2O[C@H](CNC(=O)c3cscn3)[C@@H](O)[C@H]2O)c(=O)n1
3.70

Kindly indicate its recorded pKd. Item: Nc1ccn([C@@H]2O[C@H](CNC(=O)c3cn4ccsc4n3)[C@@H](O)[C@H]2O)c(=O)n1
4.15

Kindly indicate its recorded pKd. Item: Nc1ccn([C@@H]2O[C@H](CNC(=O)c3ccnc4nc[nH]c34)[C@@H](O)[C@H]2O)c(=O)n1
4.05

Kindly indicate its recorded pKd. Item: Nc1ccn([C@@H]2O[C@H](CNC(=O)Cc3cn4ccsc4n3)[C@@H](O)[C@H]2O)c(=O)n1
3.83

---

# Test system: Burkholderia thailandensis
# experiment: Antimicrobial activity against Burkholderia thailandensis at 1 mM
# Format: functional
Active and inactive are the calls of the source. No cut-off for these calls is given here.
outcome-measure: Activity

Examples with answers:
given-smiles | Activity
Nc1ccn([C@@H]2O[C@H](CNC(=O)c3cscn3)[C@@H](O)[C@H]2O)c(=O)n1 | inactive
Nc1ccn([C@@H]2O[C@H](CNC(=O)Cc3cn4ccsc4n3)[C@@H](O)[C@H]2O)c(=O)n1 | inactive
Nc1ccn([C@@H]2O[C@H](CNC(=O)c3cn4ccsc4n3)[C@@H](O)[C@H]2O)c(=O)n1 | inactive
Nc1ccn([C@@H]2O[C@H](CNC(=O)c3ccncc3)[C@@H](O)[C@H]2O)c(=O)n1 | inactive

Kindly indicate its recorded Activity. Item: Nc1ccn([C@@H]2O[C@H](CNC(=O)c3ccnc4nc[nH]c34)[C@@H](O)[C@H]2O)c(=O)n1
inactive
